These data points were gathered from patent US7078382.

This listing pairs binders with measured Endothelial Cell Proliferation Activity (HUVEC, 3H-thymidine), concentration.
test system: KDR receptor on human umbilical vein endothelial cells (HUVEC) (human, UniProt P35968 20-1356)
Sequence (P35968 20-1356): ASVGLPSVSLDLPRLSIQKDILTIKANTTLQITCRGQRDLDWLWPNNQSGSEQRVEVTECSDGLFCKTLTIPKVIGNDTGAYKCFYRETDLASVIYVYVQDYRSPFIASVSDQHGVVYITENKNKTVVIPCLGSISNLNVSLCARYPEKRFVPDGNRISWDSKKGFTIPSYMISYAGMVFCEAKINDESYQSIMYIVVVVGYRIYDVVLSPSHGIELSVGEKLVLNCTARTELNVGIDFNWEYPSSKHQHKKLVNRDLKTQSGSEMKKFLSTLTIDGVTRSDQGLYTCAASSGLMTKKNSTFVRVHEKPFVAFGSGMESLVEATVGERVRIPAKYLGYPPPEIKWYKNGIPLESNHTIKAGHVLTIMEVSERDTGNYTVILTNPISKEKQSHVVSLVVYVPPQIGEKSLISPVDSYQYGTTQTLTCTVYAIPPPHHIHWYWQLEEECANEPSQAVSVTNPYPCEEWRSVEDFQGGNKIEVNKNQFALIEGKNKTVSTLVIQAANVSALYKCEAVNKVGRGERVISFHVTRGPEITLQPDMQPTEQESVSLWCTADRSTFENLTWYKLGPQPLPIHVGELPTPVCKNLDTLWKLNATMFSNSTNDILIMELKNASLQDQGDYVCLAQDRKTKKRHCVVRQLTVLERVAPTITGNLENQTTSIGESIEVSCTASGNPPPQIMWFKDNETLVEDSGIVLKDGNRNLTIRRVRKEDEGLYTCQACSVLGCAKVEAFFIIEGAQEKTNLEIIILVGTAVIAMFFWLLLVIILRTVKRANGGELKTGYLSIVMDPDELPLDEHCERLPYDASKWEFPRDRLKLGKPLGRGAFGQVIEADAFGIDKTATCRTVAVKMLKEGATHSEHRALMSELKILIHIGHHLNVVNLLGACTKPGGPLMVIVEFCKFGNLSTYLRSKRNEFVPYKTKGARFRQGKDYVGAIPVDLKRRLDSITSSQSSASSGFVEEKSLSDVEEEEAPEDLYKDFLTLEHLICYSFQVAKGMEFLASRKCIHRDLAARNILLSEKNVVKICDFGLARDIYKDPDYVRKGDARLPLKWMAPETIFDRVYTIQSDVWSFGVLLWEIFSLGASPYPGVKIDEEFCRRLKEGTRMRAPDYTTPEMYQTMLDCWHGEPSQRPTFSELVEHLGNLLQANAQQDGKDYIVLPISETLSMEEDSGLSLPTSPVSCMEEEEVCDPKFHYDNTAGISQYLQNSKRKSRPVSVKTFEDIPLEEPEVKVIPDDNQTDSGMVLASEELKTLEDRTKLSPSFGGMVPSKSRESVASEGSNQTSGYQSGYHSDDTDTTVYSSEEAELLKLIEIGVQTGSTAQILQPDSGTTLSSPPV
protocol description: cell-based or functional assay
endpoint name: Endothelial Cell Proliferation Activity (HUVEC, 3H-thymidine), concentration

# binder, endpoint result
records = [
    ("LK-VRB-2s* (ligand) APMAEGGGQNHHEVVKFMDVYQRSYCHPIETLVDIFQEYPDEIEYIFKPSCVPLMRCGGCCNSEMRECVPTEESNITMQIMRIKPHQGQHIGEMSFLQHNKCECRPKKD", "0.05 nM"),
    ("LK-VRB-8s* (ligand) APMAEGGGQNHHEVVKFMDVLQRSYCHPIETLVDIFQEYPDEIEYIFKPSCVPLMRCGGCCNSEMRECVPTEESNITMQIMRIKPHQGQHIGEMSFLQHNKCECRPKKD", "0.5 nM"),
    ("LK-VRB-1s* (ligand) APMAEGGGQNHHEVVKFEDVLRRSSCHPIETLVDIFQEYPDEIEYIFKPSCVPLMRCGGCCNDEGLECVPTEESNITMQIMRIKPHQGQHIGEMSFLQHNKCECRPKKD", "0.1 nM"),
    ("LK-VRB-7s* (ligand) APMAEGGGQNHHEVVKFEDVYQRSYCHPIETLVDIFQEYPDEIEYIFKPSCVPLMRCGGCCNSEMRECVPTEESNITMQIMRIKPHQGQHIGEMSFLQHNKCECRPKKD", "0.5 nM"),
    ("native VEGF (8-109) (ligand) GQNHHEVVKFMDVYQRSYCHPIETLVDIFQEYPDEIEYIFKPSCVPLMRCGGCCNDEGLECVPTEESNITMQIMRIKPHQGQHIGEMSFLQHNKCECRPKKD", "0.5 nM"),
    ("LK-VRB-2f (ligand, also called KDR-full) APMAEGGGQNHHEVVKFMDVYQRSYCHPIETLVDIFQEYPDEIEYIFKPSCVPLMRCGGCCNSEMRECVPTEESNITMQIMRIKPHQGQHIGEMSFLQHNKCECRPKKDRARQENPCGPCSERRKHLFVQDPQTCKCSCKNTDSRCKARQLELNERTCRCDKPRR", "0.05 nM"),
]
